# Tested on: HeLa Kyoto
# assayOverview: solubility in G1/S (NP-40 vs SDS abundance) (log2 ratio); higher = more soluble
# conditionInfo: cell cycle stage: G1/S
Short version: solubility in G1/S (log2) at least 0.1 is 1.0, less is 0.0.

Prompt: In plain terms: is recorded solubility in G1/S (log2) at least 0.1 for MTSELDIFVGNTTLIDEDVYRLWLDGYSVTDAVALRVRSGILEQTGATAAVLQSDTMDHYRTFHMLERLLHAPPKLLHQLIFQIPPSRQALLIERYYAFDEAFVREVLGKKLSKGTKKDLDDISTKTGITLKSCRRQFDNFKRVFKVVEEMRGSLVDNIQQHFLLSDRLARDYAAIVFFANNRFETGKKKLQYLSFGDFAFCAELMIQNWTLGAVGEAPTDPDSQMDDMDMDLDKEFLQDLKELKVLVADKDLLDLHKSLVCTALRGKLGVFSEMEANFKNLSRGLVNVAAKLTHNKDVRDLFVDLVEKFVEPCRSDHWPLSDVRFFLNQYSASVHSLDGFRHQALWDRYMGTLRGCLLRLYHD [FIBP] ?
Completion: 0.0

Prompt: Textbook exercise: given the entry MAELRVLVAVKRVIDYAVKIRVKPDRTGVVTDGVKHSMNPFCEIAVEEAVRLKEKKLVKEVIAVSCGPAQCQETIRTALAMGADRGIHVEVPPAEAERLGPLQVARVLAKLAEKEKVDLVLLGKQAIDDDCNQTGQMTAGFLDWPQGTFASQVTLEGDKLKVEREIDGGLETLRLKLPAVVTADLRLNEPRYATLPNIMKAKKKKIEVIKPGDLGVDLTSKLSVISVEDPPQRTAGVKVETTEDLVAKLKEIGRI [ETFB] , state whether its solubility in G1/S (log2) is greater than or equal to 0.1.
Completion: 1.0

Prompt: Threshold query (solubility in G1/S (log2) >= 0.1) on MVARRRKCAARDPEDRIPSPLGYAAIPIKFSEKQQASHYLYVRAHGVRQGTKSTWPQKRTLFVLNVPPYCTEESLSRLLSTCGLVQSVELQEKPDLAESPKESRSKFFHPKPVPGFQVAYVVFQKPSGVSAALALKGPLLVSTESHPVKSGIHKWISDYADSVPDPEALRVEVDTFMEAYDQKIAEEEAKAKEEEGVPDEEGWVKVTRRGRRPVLPRTEAASLRVLERERRKRSRKELLNFYAWQHRESKMEHLAQLRKKFEEDKQRIELLRAQRKFRPY [RRP7A]
Completion: 0.0

Prompt: Check the entry MKPSGEDQAALAAGPWEECFQAAVQLALRAGQIIRKALTEEKRVSTKTSAADLVTETDHLVEDLIISELRERFPSHRFIAEEAAASGAKCVLTHSPTWIIDPIDGTCNFVHRFPTVAVSIGFAVRQELEFGVIYHCTEERLYTGRRGRGAFCNGQRLRVSGETDLSKALVLTEIGPKRDPATLKLFLSNMERLLHAKAHGVRVIGSSTLALCHLASGAADAYYQFGLHCWDLAAATVIIREAGGIVIDTSGGPLDLMACRVVAASTREMAMLIAQALQTINYGRDDEK [IMPA2] : does solubility in G1/S (log2) equal or exceed 0.1?
Completion: 1.0

Prompt: Test whether the sequence MGPRARPALLLLMLLQTAVLQGRLLRSHSLHYLFMGASEQDLGLSLFEALGYVDDQLFVFYDHESRRVEPRTPWVSSRISSQMWLQLSQSLKGWDHMFTVDFWTIMENHNHSKESHTLQVILGCEMQEDNSTEGYWKYGYDGQDHLEFCPDTLDWRAAEPRAWPTKLEWERHKIRARQNRAYLERDCPAQLQQLLELGRGVLDQQVPPLVKVTHHVTSSVTTLRCRALNYYPQNITMKWLKDKQPMDAKEFEPKDVLPNGDGTYQGWITLAVPPGEEQRYTCQVEHPGLDQPLIVIWEPSPSGTLVIGVISGIAVFVVILFIGILFIILRKRQGSRGAMGHYVLAERE [HFE] records solubility in G1/S (log2) of 0.1 or higher.
Completion: 1.0

###

I'd appreciate it if you could supply melting temperature values for the items below.
# Test system: HeLa Kyoto
# assayOverview: melting temperature (median over replicates), in situ; higher = more thermally stable
# conditionInfo: cell cycle stage: mitosis
Express your answer in °C, writing the number without its unit.

Lab book: melting temperature of MIIYRDLISHDEMFSDIYKIREIADGLCLEVEGKMVSRTEGNIDDSLIGGNASAEGPEGEGTESTVITGVDIVMNHHLQETSFTKEAYKKYIKDYMKSIKGKLEEQRPERVKPFMTGAAEQIKHILANFKNYQFFIGENMNPDGMVALLDYREDGVTPYMIFFKDGLEMEKC [TPT1] noted as 52.9

Reported melting temperature of MASLKCSTVVCVICLEKPKYRCPACRVPYCSVVCFRKHKEQCNPETRPVEKKIRSALPTKTVKPVENKDDDDSIADFLNSDEEEDRVSLQNLKNLGESATLRSLLLNPHLRQLMVNLDQGEDKAKLMRAYMQEPLFVEFADCCLGIVEPSQNEES [ZNHIT3] : 52.7

Data point: MWTLGRRAVAGLLASPSPAQAQTLTRVPRPAELAPLCGRRGLRTDIDATCTPRRASSNQRGLNQIWNVKKQSVYLMNLRKSGTLGHPGSLDETTYERLAEETLDSLAEFFEDLADKPYTFEDYDVSFGSGVLTVKLGGDLGTYVINKQTPNKQIWLSSPSSGPKRYDWTGKNWVYSHDGVSLHELLAAELTKALKTKLDLSSLAYSGKDA [FXN] ; melting temperature = 53.3

For reference, reported melting temperature for MAEKVLVTGGAGYIGSHTVLELLEAGYLPVVIDNFHNAFRGGGSLPESLRRVQELTGRSVEFEEMDILDQGALQRLFKKYSFMAVIHFAGLKAVGESVQKPLDYYRVNLTGTIQLLEIMKAHGVKNLVFSSSATVYGNPQYLPLDEAHPTGGCTNPYGKSKFFIEEMIRDLCQADKTWNAVLLRYFNPTGAHASGCIGEDPQGIPNNLMPYVSQVAIGRREALNVFGNDYDTEDGTGVRDYIHVVDLAKGHIAALRKLKEQCGCRIYNLGTGTGYSVLQMVQAMEKASGKKIPYKVVARREGDVAACYANPSLAQEELGWTAALGLDRMCEDLWRWQKQNPSGFGTQA [GALE] stands at 53.8

Looking up MSSGIHVALVTGGNKGIGLAIVRDLCRLFSGDVVLTARDVTRGQAAVQQLQAEGLSPRFHQLDIDDLQSIRALRDFLRKEYGGLDVLVNNAGIAFKVADPTPFHIQAEVTMKTNFFGTRDVCTELLPLIKPQGRVVNVSSIMSVRALKSCSPELQQKFRSETITEEELVGLMNKFVEDTKKGVHQKEGWPSSAYGVTKIGVTVLSRIHARKLSEQRKGDKILLNACCPGWVRTDMAGPKATKSPEEGAETPVYLALLPPDAEGPHGQFVSEKRVEQW [CBR1] , I see its melting temperature listed as 53

Memo: MSKGTSSDTSLGRVSRAAFPSPTAAEMAEISRIQYEMEYTEGISQRMRVPEKLKVAPPNADLEQGFQEGVPNASVIMQVPERIVVAGNNEDVSFSRPADLDLIQSTPFKPLALKTPPRVLTLSERPLDFLDLERPPTTPQNEEIRAVGRLKRERSMSENAVRQNGQLVRNDSLWHRSDSAPRNKISRFQAPISAPEYTVTPSPQQARVCPPHMLPEDGANLSSARGILSLIQSSTRRAYQQILDVLDENRRPVLRGGSAAATSNPHHDNVRYGISNIDTTIEGTSDDLTVVDAASLRRQIIKLNRRLQLLEEENKERAKREMVMYSITVAFWLLNSWLWFRR [MFF] , reported melting temperature: 52.6

###

# System: HeLa Kyoto
# assayOverview: thermal stability score vs G1/S (z-score of summed log2 fold changes over temperatures); higher = more thermally stable than in G1/S
# conditionInfo: cell cycle stage: early G1 (4.5 h after nocodazole release)
endpoint: thermal stability score
Give the value as a plain number.

Let me check: MDLRQFLMCLSLCTAFALSKPTEKKDRVHHEPQLSDKVHNDAQSFDYDHDAFLGAEEAKTFDQLTPEESKERLGKIVSKIDGDKDGFVTVDELKDWIKFAQKRWIYEDVERQWKGHDLNEDGLVSWEEYKNATYGYVLDDPDPDDGFNYKQMMVRDERRFKMADKDGDLIATKEEFTAFLHPEEYDYMKDIVVQETMEDIDKNADGFIDLEEYIGDMYSHDGNTDEPEWVKTEREQFVEFRDKNRDGKMDKEETKDWILPSDYDHAEAEARHLVYESDQNKDGKLTKEEIVDKYDLFVGSQATDFGEALVRHDEF [CALU] , system HeLa Kyoto, measured thermal stability score is 1.04

Record MASVTRAVFGELPSGGGTVEKFQLQSDLLRVDIISWGCTITALEVKDRQGRASDVVLGFAELEGYLQKQPYFGAVIGRVANRIAKGTFKVDGKEYHLAINKEPNSLHGGVRGFDKVLWTPRVLSNGVQFSRISPDGEEGYPGELKVWVTYTLDGGELIVNYRAQASQATPVNLTNHSYFNLAGQASPNINDHEVTIEADTYLPVDETLIPTGEVAPVQGTAFDLRKPVELGKHLQDFHLNGFDHNFCLKGSKEKHFCARVHHAASGRVLEVYTTQPGVQFYTGNFLDGTLKGKNGAVYPKHSGFCLETQNWPDAVNQPRFPPVLLRPGEEYDHTTWFKFSVA [GALM] has HeLa Kyoto thermal stability score equal to -0.647

Log: HeLa Kyoto, substance MASSSGNDDDLTIPRAAINKMIKETLPNVRVANDARELVVNCCTEFIHLISSEANEICNKSEKKTISPEHVIQALESLGFGSYISEVKEVLQECKTVALKRRKASSRLENLGIPEEELLRQQQELFAKARQQQAELAQQEWLQMQQAAQQAQLAAASASASNQAGSSQDEEDDDDI [DR1] , thermal stability score = -1.34

Entry MASTSYDYCRVPMEDGDKRCKLLLGIGILVLLIIVILGVPLIIFTIKANSEACRDGLRAVMECRNVTHLLQQELTEAQKGFQDVEAQAATCNHTVMALMASLDAEKAQGQKKVEELEGEITTLNHKLQDASAEVERLRRENQVLSVRIADKKYYPSSQDSSSAAAPQLLIVLLGLSALLQ [BST2] , HeLa Kyoto data, thermal stability score value: -4.66

# value of thermal stability score, HeLa Kyoto, item MVDRLANSEANTRRISIVENCFGAAGQPLTIPGRVLIGEGVLTKLCRKKPKARQFFLFNDILVYGNIVIQKKKYNKQHIIPLENVTIDSIKDEGDLRNGWLIKTPTKSFAVYAATATEKSEWMNHINKCVTDLLSKSGKTPSNEHAAVWVPDSEATVCMRCQKAKFTPVNRRHHCRKCGFVVCGPCSEKRFLLPSQSSKPVRICDFCYDLLSAGDMATCQPARSDSYSQSLKSPLNDMSDDDDDDDSSD [PLEKHF2] = 0.212

Kindly note: HeLa Kyoto, MSSTQFNKGPSYGLSAEVKNRLLSKYDPQKEAELRTWIEGLTGLSIGPDFQKGLKDGTILCTLMNKLQPGSVPKINRSMQNWHQLENLSNFIKAMVSYGMNPVDLFEANDLFESGNMTQVQVSLLALAGKAKTKGLQSGVDIGVKYSEKQERNFDDATMKAGQCVIGLQMGTNKCASQSGMTAYGTRRHLYDPKNHILPPMDHSTISLQMGTNKCASQVGMTAPGTRRHIYDTKLGTDKCDNSSMSLQMGYTQGANQSGQVFGLGRQIYDPKYCPQGTVADGAPSGTGDCPDPGEVPEYPPYYQEEAGY [CNN2] , thermal stability score value reported: 1.28

Query MPVAGSELPRRPLPPAAQERDAEPRPPHGELQYLGQIQHILRCGVRKDDRTGTGTLSVFGMQARYSLRDEFPLLTTKRVFWKGVLEELLWFIKGSTNAKELSSKGVKIWDANGSRDFLDSLGFSTREEGDLGPVYGFQWRHFGAEYRDMESDYSGQGVDQLQRVIDTIKTNPDDRRIIMCAWNPRDLPLMALPPCHALCQFYVVNSELSCQLYQRSGDMGLGVPFNIASYALLTYMIAHITGLKPGDFIHTLGDAHIYLNHIEPLKIQLQREPRPFPKLRILRKVEKIDDFKAEDFQIEGYNPHPTIKMEMAV [TYMS] on HeLa Kyoto; thermal stability score returned: -0.449

Value sought: thermal stability score, system HeLa Kyoto, item MATSVLCCLRCCRDGGTGHIPLKEMPAVQLDTQHMGTDVVIVKNGRRICGTGGCLASAPLHQNKSYFEFKIQSTGIWGIGVATQKVNLNQIPLGRDMHSLVMRNDGALYHNNEEKNRLPANSLPQEGDVVGITYDHVELNVYLNGKNMHCPASGIRGTVYPVVYVDDSAILDCQFSEFYHTPPPGFEKILFEQQIF [SPRYD7] . Result: 0.0977

Observed thermal stability score, HeLa Kyoto, XPNPEP3 : -0.645

Item MPLLTQQIQDEDDQYSLVASLDNVRNLSTILKAIHFREHATCFATKNGIKVTVENAKCVQANAFIQAGIFQEFKVQEESVTFRINLTVLLDCLSIFGSSPMPGTLTALRMCYQGYGYPLMLFLEEGGVVTVCKINTQEPEETLDFDFCSTNVINKIILQSEGLREAFSELDMTSEVLQITMSPDKPYFRLSTFGNAGSSHLDYPKDSDLMEAFHCNQTQVNRYKISLLKPSTKALVLSCKVSIRTDNRGFLSLQYMIRNEDGQICFVEYYCCPDEEVPESES [RAD1] was tested on HeLa Kyoto; the reported thermal stability score is 2.13

Measured on HeLa Kyoto, MAAALFVLLGFALLGTHGASGAAGFVQAPLSQQRWVGGSVELHCEAVGSPVPEIQWWFEGQGPNDTCSQLWDGARLDRVHIHATYHQHAASTISIDTLVEEDTGTYECRASNDPDRNHLTRAPRVKWVRAQAVVLVLEPGTVFTTVEDLGSKILLTCSLNDSATEVTGHRWLKGGVVLKEDALPGQKTEFKVDSDDQWGEYSCVFLPEPMGTANIQLHGPPRVKAVKSSEHINEGETAMLVCKSESVPPVTDWAWYKITDSEDKALMNGSESRFFVSSSQGRSELHIENLNMEADPGQYRCNGTSSKGSDQAIITLRVRSHLAALWPFLGIVAEVLVLVTIIFIYEKRRKPEDVLDDDDAGSAPLKSSGQHQNDKGKNVRQRNSS [BSG] has a documented thermal stability score of -0.849
